# Tested on: Klebsiella pneumoniae biofilms
# TEST DETAILS: in vitro disruption of pre-formed biofilms, LIVE/DEAD, CLSM and COMSTAT
# Assay type: cell-based
# CONDITION CONTEXT: 200 nM added to pre-formed biofilms at 24 h, read at 40 h; vs untreated KP biofilms
VALUE TYPE: % reduction in biomass (BM), mean±SE

{"MOLECULE": "mHMGB1: engineered C45S variant of full length rHMGB1 that mimics the reduced form of HMGB1 (protein, UniProt P09429 1-215, looked up, variant C45S, full-length, engineered C45S variant of full length rHMGB1 that mimics the reduced form of HMGB1) MGKGDPKKPRGKMSSYAFFVQTCREEHKKKHPDASVNFSEFSKKSSERWKTMSAKEKGKFEDMAKADKARYEREMKTYIPPKGETKKKFKDPNAPKRPPSAFFLFCSEYRPKIKGEHPGLSIGDVAKKLGEMWNNTAADDKQPYEKKAAKLKEKYEKDIAAYRAKGKPDAAKKGVVKAEKSKKKKEEEEDEEDEEDEEEEEDEEDEDEEEDDDDE", "ASSAY RESULT": "80%±0.01"}

Please state % reduction in biomass (BM), mean±SE for every molecule in the list that follows.
1. AB Boxes: HMGB1 A and B domains (1-176), lacks the C tail (protein, UniProt P09429 1-176, looked up, fragment) MGKGDPKKPRGKMSSYAFFVQTCREEHKKKHPDASVNFSEFSKKCSERWKTMSAKEKGKFEDMAKADKARYEREMKTYIPPKGETKKKFKDPNAPKRPPSAFFLFCSEYRPKIKGEHPGLSIGDVAKKLGEMWNNTAADDKQPYEKKAAKLKEKYEKDIAAYRAKGKPDAAKKGVV
2. B-linker Box: HMGB1 B Box with N- and C-terminal linker (80-179; 80 to 176 in b258), 97 amino acid (protein, UniProt P09429 80-179, looked up, fragment) PPKGETKKKFKDPNAPKRPPSAFFLFCSEYRPKIKGEHPGLSIGDVAKKLGEMWNNTAADDKQPYEKKAAKLKEKYEKDIAAYRAKGKPDAAKKGVVKAE
3. B-Box: HMGB1 domain B Box (90-176), listed beside B-linker Box in Experiment No. 1 (protein, UniProt P09429 90-176, looked up, fragment) KDPNAPKRPPSAFFLFCSEYRPKIKGEHPGLSIGDVAKKLGEMWNNTAADDKQPYEKKAAKLKEKYEKDIAAYRAKGKPDAAKKGVV

Response:
1: 73%±0.02; 2: 67%±0.01; 3: 68%±0.02
